assay summary: Pharmacokinetic study in normal and arthritic model rats after oral administration of APR extract (UPLC-MS/MS of plasma)
condition parameters: Sprague-Dawley, rat, in vivo, po, 4.1 mL/kg, C max, arthritic model rats (complete Freund's adjuvant), oral APR extract 4.1 mL/kg, plasma, mean ± SD, n = 6
value type: Cmax (ng/mL)
Expressed in ng/mL, but write only the number.

-- ask Cmax lookup needed for COc1c2occc2cc2ccc(=O)oc12 , thanks.
-- reply 528

---

assay summary: Pharmacokinetic study in normal and arthritic model rats after oral administration of APR extract (UPLC-MS/MS of plasma)
condition parameters: Sprague-Dawley, rat, plasma, po, 4.1 mL/kg, t 1/2, normal rats, oral APR extract 4.1 mL/kg, mean ± SD, n = 6
Quick reference for half-life among some compounds
Expressed in h, but write only the number.

Solved entries (count: 3):
compound	observed measurement
O=C(/C=C/c1ccc(O)c(O)c1)O[C@@H]1[C@H](O)C[C@@](O)(C(=O)O)C[C@H]1OC(=O)/C=C/c1ccc(O)c(O)c1	58
CC(C)=CCOc1c2ccoc2cc2oc(=O)ccc12	26.9
O=C(C=Cc1ccc(O)c(O)c1)OC1CC(O)(C(=O)O)CC(OC(=O)C=Cc2ccc(O)c(O)c2)C1O (stereo not shown)	33.9

-- ask half-life lookup needed for O=C(/C=C/c1ccc(O)c(O)c1)O[C@@H]1C[C@](O)(C(=O)O)C[C@@H](O)[C@H]1O , thanks.
-- reply 27.9

-- ask half-life lookup needed for O=c1ccc2cc3ccoc3cc2o1 , thanks.
-- reply 9.8

-- ask half-life lookup needed for CC(C)(O)[C@@H]1Cc2c(ccc3ccc(=O)oc23)O1 , thanks.
-- reply 6.04

-- ask half-life lookup needed for COc1c2ccoc2cc2oc(=O)ccc12 , thanks.
-- reply 9.41

---

assay summary: Pharmacokinetic study in normal and arthritic model rats after oral administration of APR extract (UPLC-MS/MS of plasma)
condition parameters: Sprague-Dawley, rat, plasma, po, 4.1 mL/kg, t 1/2, arthritic model rats (complete Freund's adjuvant), oral APR extract 4.1 mL/kg, mean ± SD, n = 6
Each entry gets no if its half-life stays under 30 h, and yes if its half-life is 30 h or above.

Record excerpt, results attached:
compound	category
COc1c2ccoc2cc2oc(=O)ccc12 [Bergapten, bergapten]	no
CC(C)=CCOc1c2ccoc2cc2oc(=O)ccc12 [Isoimperatorin, isoimperatorin]	no
O=C(C=Cc1ccc(O)c(O)c1)OC1CC(O)(C(=O)O)CC(O)C1O (stereo not shown) [Neochlorogenic acid]	yes
O=C(C=Cc1ccc(O)c(O)c1)OC1CC(O)(C(=O)O)CC(OC(=O)C=Cc2ccc(O)c(O)c2)C1O (stereo not shown) [3,5-diCQA, isochlorogenic acid A]	yes
C/C=C(/C)C(=O)OC(C)(C)[C@@H]1Cc2c(ccc3ccc(=O)oc23)O1 [Columbianadin, columbianadin]	no

-- ask Reported half-life reaches at least 30 h for O=C(/C=C/c1ccc(O)c(O)c1)O[C@@H]1[C@H](O)C[C@@](O)(C(=O)O)C[C@H]1OC(=O)/C=C/c1ccc(O)c(O)c1 [3,4-diCQA, isochlorogenic acid B] ?
-- reply yes

-- ask Reported half-life reaches at least 30 h for O=C(/C=C/c1ccc(O)c(O)c1)O[C@H]1[C@H](O)C[C@](O)(C(=O)O)C[C@H]1O [Cryptochlorogenic acid, cryptochlorogenic acid] ?
-- reply yes

---

assay summary: Pharmacokinetic study in normal and arthritic model rats after oral administration of APR extract (UPLC-MS/MS of plasma)
condition parameters: Sprague-Dawley, rat, plasma, po, 4.1 mL/kg, t max, arthritic model rats (complete Freund's adjuvant), oral APR extract 4.1 mL/kg, mean ± SD, n = 6
Each entry gets 0.0 if its Tmax stays under 30 min, and 1.0 if its Tmax is 30 min or above.

Record excerpt, results attached:
molecule	category
O=C(C=Cc1ccc(O)c(O)c1)OC1CC(O)(C(=O)O)CC(OC(=O)C=Cc2ccc(O)c(O)c2)C1O (centres unmarked)	0.0
COc1ccc2ccc(=O)oc2c1CC=C(C)C	1.0
C/C=C(/C)C(=O)OC(C)(C)[C@@H]1Cc2c(ccc3ccc(=O)oc23)O1	0.0
COc1c2ccoc2cc2oc(=O)ccc12	1.0
CC(C)=CCOc1c2ccoc2cc2oc(=O)ccc12	1.0

-- ask Reported Tmax reaches at least 30 min for O=C(C=Cc1ccc(O)c(O)c1)OC1CC(O)(C(=O)O)CC(O)C1O (centres unmarked) ?
-- reply 0.0

-- ask Reported Tmax reaches at least 30 min for O=c1ccc2cc3ccoc3cc2o1 ?
-- reply 1.0

-- ask Reported Tmax reaches at least 30 min for O=C(/C=C/c1ccc(O)c(O)c1)O[C@@H]1C[C@](O)(C(=O)O)C[C@@H](O)[C@H]1O ?
-- reply 0.0
